- Target Or Test System: T1, IL-18 receptor (IL-18Rα/IL-18Rβ) overexpressed on HEK-Blue IL-18 cells (Homo sapiens (Human), UniProt Q13478 19-541; O95256 20-599)
- T1 sequence 1: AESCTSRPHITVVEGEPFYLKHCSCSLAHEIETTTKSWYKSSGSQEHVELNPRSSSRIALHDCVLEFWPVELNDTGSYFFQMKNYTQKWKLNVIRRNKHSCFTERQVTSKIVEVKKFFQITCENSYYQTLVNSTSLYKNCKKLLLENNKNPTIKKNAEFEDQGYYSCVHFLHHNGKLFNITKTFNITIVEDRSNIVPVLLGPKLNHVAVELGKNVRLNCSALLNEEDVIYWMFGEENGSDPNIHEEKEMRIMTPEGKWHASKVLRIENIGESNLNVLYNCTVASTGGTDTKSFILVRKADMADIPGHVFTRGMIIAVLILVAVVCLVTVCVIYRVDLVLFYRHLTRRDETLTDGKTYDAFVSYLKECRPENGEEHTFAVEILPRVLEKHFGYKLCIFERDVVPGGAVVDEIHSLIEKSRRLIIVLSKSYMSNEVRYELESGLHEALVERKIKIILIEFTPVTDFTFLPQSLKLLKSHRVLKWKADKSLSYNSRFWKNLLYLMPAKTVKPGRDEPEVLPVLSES
- T1 sequence 2: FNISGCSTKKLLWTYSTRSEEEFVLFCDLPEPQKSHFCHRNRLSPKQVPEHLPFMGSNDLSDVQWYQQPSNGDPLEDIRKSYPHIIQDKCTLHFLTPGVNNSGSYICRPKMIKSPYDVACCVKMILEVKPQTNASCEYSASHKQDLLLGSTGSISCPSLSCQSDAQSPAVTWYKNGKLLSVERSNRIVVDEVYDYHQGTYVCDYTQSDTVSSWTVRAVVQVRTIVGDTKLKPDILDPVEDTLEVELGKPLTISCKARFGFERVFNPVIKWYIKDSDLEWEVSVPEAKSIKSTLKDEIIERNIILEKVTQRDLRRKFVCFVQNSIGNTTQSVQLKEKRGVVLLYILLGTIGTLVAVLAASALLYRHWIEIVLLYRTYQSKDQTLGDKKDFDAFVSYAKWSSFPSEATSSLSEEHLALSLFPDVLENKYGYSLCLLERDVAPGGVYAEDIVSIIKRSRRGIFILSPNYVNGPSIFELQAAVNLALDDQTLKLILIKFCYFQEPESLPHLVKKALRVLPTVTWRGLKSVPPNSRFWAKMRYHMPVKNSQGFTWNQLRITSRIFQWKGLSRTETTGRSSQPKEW
- Protocol Notes: cell-based or functional assay
Endpoint: HEK-Blue IL-18: Fold over Background (fold)
Form entry: value (fold) — number only.

Input line: What measured HEK-Blue IL-18: Fold over Background goes with DGL297 (bispecific antibody, V domains shown) V domain 1: QVQLVESGGGLVQAGGSLRLSCAASGRTFSSYTMGWFRQAPGKEREFVAAISWSAGRTYYADSVKGRFTISRDNAKNTVYLQMNSLKPEDTAVYFCAAEEAPDWAPIDCSGYGCLSLYDYWGQGTQVTVSS V domain 2: QVQLVESGGDLVLPGGSLKLSCEASGSISSRNSMAWYRRAPGKQRELVAAISSISSGGRTDYADFVKGRFTIFRDTAKNMVYLQMNNLKPEDTAVYDCDDPIRVASLAYDDWGQGTQVTVSS ?
Output line: 2.7

Input line: Could you tell me which HEK-Blue IL-18: Fold over Background is on file for DGL319 (bispecific antibody, V domains shown) V domain 1: EVQLVESGGGLVQPGGSLRLSCAASGSIFSINAMGWYRQAPGKQREVVATSTGGGMTNYADSVKGRFTISRDNAKNTVYLQMNSLKPEDTAVYYCNADKDPFFPGDYWGQGTQVTVSS V domain 2: QLQLVESGGGLVQAGGSLRLSCAASRSITFSHNVMGWYRQAPGKQRELVASIGSGGSTNYVDSVKGRATISRDNAKKTVYLQMNSLKPEDTAVYYCGVVVGVYRGSLGQGTQVTVSS ?
Output line: 12.5
